Data provenance is PubChem BioAssay AID526.

TEST_DETAILS: Ubiquitin-GFP Assay
CONDITION_PARAMETERS: Ubiquitin-GFP reporter cells, proteasome inhibition, GFP fluorescence, untreated = 0%, 10 µM MG-132 = 100%; series mostly up to 45.9 µM
Excerpt: NIH Chemical Genomics Center [NCGC] NIH Molecular Libraries Screening Centers Network [MLSCN] The ubiquitin-proteasome pathway is present within all eukaryotic cells and plays roles in normal cellular functions and disease-related dysfunction. […] A cellular assay for ubiquitin-proteasome function was used to find chemical probes of this pathway. […] Under basal conditions little GFP can be detected as it is degraded by the proteasome. […] 6. Detector Acumen Total Intensity, GFP fluorescence (488 ex/515 em) […]
Fewer than 10 of roughly 67,000 compounds were called active. Not all results are given here.
MEASURE: activation (GFP accumulation)

O=C(c1cc(C(F)(F)F)cc(C(F)(F)F)c1)N1CCC[C@@]2(CCN(c3ccccn3)C2)C1	inactive
COc1ccc(OC)c(C(=O)CSc2nnc(-c3cccs3)o2)c1	inactive
COc1ccc(OC)c(NC(=O)CSc2nc3cccnc3n2C)c1	inactive
O=C(O)c1c(Br)c(Br)c(Br)c(Br)c1C1c2ccc(O)cc2Oc2cc(O)ccc21	5.65% [at 9.17 µM] (inactive)
O=C(/C=N/O)Nc1ccccc1	inactive
Cc1ccc(SCc2cc(=O)[nH]c(N3CCCCC3)n2)cc1	inactive
